- subject.of.test: UniProtKB Q5VWK5
- experiment.notes: DB cells IL23R pSTAT3 cell assay (pStat3 HTRF)
- Type: cell-based
- Source text: Human ELISA indicates the IL23-IL23R competitive binding assay described below, Rat ELISA indicates the rat IL-23R competitive binding ELISA assay described below, and pStat3HTRF indicates the DB cells IL-23R pSTAT3 cell assay described below. The peptides depicted in Table E1 are cyclized via a disulfide bridge formed between two Pen residues in these peptides. The peptides depicted in Table E2 are cyclized via a thioether bond between the indicated amino acid residues. […]
pIC50: −log10 of the molar value.
measured.parameter: pIC50

response.value for COc1ccc2[nH]cc(C[C@@H]3NC(=O)[C@H]([C@@H](C)O)NC(=O)[C@H](CC(N)=O)NC(=O)[C@@H](NC(C)=O)C(C)(C)SSC(C)(C)[C@@H](C(=O)N[C@@H](Cc4ccc(OCCN)cc4)C(=O)N[C@@H](Cc4ccc5ccccc5c4)C(=O)N[C@@](C)(CC(C)C)C(=O)N[C@@H](CCCCNC(C)=O)C(=O)N[C@@H](CC(N)=O)C(=O)N[C@@H](CC(N)=O)C(N)=O)NC(=O)[C@H](CCC(N)=O)NC3=O)c2c1 [compound 9] (field: pIC50) = < 7.00

----------
- experiment.notes: in vitro
- condition.notes: cynomolgus monkey, 20% fecal homogenate (supernatant), anaerobic, pH 6.8
measured.parameter: half-life at 20 μM (h)
// note: answer is a bare numeric in h

response.value for CC(=O)NCCCC[C@H](NC(=O)[C@](C)(CC(C)C)NC(=O)[C@H](Cc1ccc2ccccc2c1)NC(=O)[C@H](Cc1ccc(OCCN)cc1)NC(=O)[C@H]1NC(=O)[C@H](CCC(N)=O)NC(=O)[C@H](Cc2c[nH]c3cc(C)ccc23)NC(=O)[C@H]([C@@H](C)O)NC(=O)[C@H](CC(N)=O)NC(=O)[C@@H](NC(C)=O)C(C)(C)SSC1(C)C)C(=O)N[C@@H](CC(N)=O)C(=O)N[C@@H](CC(N)=O)C(N)=O (field: half-life at 20 μM) = 2

----------
Let's look at some compounds and their measured pIC50.
- subject.of.test: IL-23R (Homo sapiens, UniProt Q5VWK5)
- Sequence (Q5VWK5 24-629): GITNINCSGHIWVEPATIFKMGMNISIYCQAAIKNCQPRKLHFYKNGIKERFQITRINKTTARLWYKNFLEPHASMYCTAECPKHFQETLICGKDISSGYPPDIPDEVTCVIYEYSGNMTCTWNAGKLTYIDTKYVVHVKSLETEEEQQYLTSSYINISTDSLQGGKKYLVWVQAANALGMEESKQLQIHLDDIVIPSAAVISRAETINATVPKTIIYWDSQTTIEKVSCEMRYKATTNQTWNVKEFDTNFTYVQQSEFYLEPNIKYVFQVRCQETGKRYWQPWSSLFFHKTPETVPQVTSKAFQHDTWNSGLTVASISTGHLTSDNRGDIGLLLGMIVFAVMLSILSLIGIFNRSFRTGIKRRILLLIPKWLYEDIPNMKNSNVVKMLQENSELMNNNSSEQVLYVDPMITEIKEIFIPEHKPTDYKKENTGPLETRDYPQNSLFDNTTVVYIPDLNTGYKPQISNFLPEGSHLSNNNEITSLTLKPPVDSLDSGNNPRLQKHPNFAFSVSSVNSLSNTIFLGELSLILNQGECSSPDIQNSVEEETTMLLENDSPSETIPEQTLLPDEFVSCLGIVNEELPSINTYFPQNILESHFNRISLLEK
- experiment.notes: DB cells IL23R pSTAT3 cell assay (pStat3 HTRF)
- Assay type: cell-based
- Source text: Human ELISA indicates the IL23-IL23R competitive binding assay described below, Rat ELISA indicates the rat IL-23R competitive binding ELISA assay described below, and pStat3HTRF indicates the DB cells IL-23R pSTAT3 cell assay described below. The peptides depicted in Table E1 are cyclized via a disulfide bridge formed between two Pen residues in these peptides. The peptides depicted in Table E2 are cyclized via a thioether bond between the indicated amino acid residues. […]
pIC50: −log10 of the molar value.

Use the examples below as a reference point.
>  <structure.string>
CC(=O)NCCCC[C@H](NC(=O)[C@](C)(CC(C)C)NC(=O)[C@H](Cc1ccc2ccccc2c1)NC(=O)[C@H](Cc1ccc(OCCN)cc1)NC(=O)[C@H]1NC(=O)[C@H](CCC(N)=O)NC(=O)[C@H](Cc2c[nH]c3cc(C)ccc23)NC(=O)[C@H]([C@@H](C)O)NC(=O)[C@H](CC(N)=O)NC(=O)[C@@H](NC(C)=O)C(C)(C)SSC1(C)C)C(=O)N[C@@H](CC(N)=O)C(=O)N[C@@H](CC(N)=O)C(N)=O

>  <pIC50>
8.00 to 9.00

$$$$
>  <structure.string>
CC(=O)NCCCC[C@H](NC(=O)[C@](C)(CC(C)C)NC(=O)[C@H](Cc1ccc2ccccc2c1)NC(=O)[C@H](Cc1ccc(OCCN)cc1)NC(=O)[C@H]1NC(=O)[C@H](CCC(N)=O)NC(=O)[C@H](Cc2c[nH]c3cc(Cl)ccc23)NC(=O)[C@H]([C@@H](C)O)NC(=O)[C@H](CC(N)=O)NC(=O)[C@@H](NC(C)=O)C(C)(C)SSC1(C)C)C(=O)N[C@@H](CC(N)=O)C(=O)N[C@@H](CC(N)=O)C(N)=O

>  <pIC50>
7.00 to 8.00

$$$$
>  <structure.string>
CC(=O)NCCCC[C@@H]1NC(=O)[C@H](Cc2c[nH]c3c(C)cccc23)NC(=O)[C@H]([C@@H](C)O)NC(=O)[C@H](CC(N)=O)NC(=O)[C@@H](NC(C)=O)C(C)(C)SSC(C)(C)[C@@H](C(=O)N[C@@H](Cc2ccc(OCCN)cc2)C(=O)N[C@@H](Cc2ccc3ccccc3c2)C(=O)N[C@@](C)(CCCCN)C(=O)N[C@@H](CCCCNC(C)=O)C(=O)N[C@@H](CC(N)=O)C(=O)N[C@H](CC(N)=O)Cc2ccccc2)NC1=O

>  <pIC50>
8.00 to 9.00

$$$$

Now examine the next entry.
response.value for CC(=O)NCCCC[C@H](NC(=O)[C@](C)(CC(C)C)NC(=O)[C@H](Cc1ccc2ccccc2c1)NC(=O)[C@H](Cc1ccc(OCCN)cc1)NC(=O)[C@H]1NC(=O)[C@H](CCC(N)=O)NC(=O)[C@H](Cc2c[nH]c3ccc(O)cc23)NC(=O)[C@H]([C@@H](C)O)NC(=O)[C@H](CC(N)=O)NC(=O)[C@@H](NC(C)=O)C(C)(C)SSC1(C)C)C(=O)N[C@@H](CC(N)=O)C(=O)N[C@@H](CC(N)=O)C(N)=O (field: pIC50) = < 7.00
